The values you see were collected from paper PMC4336329.

# assaySystem: human ether-à-go-go-related gene (hERG) potassium channel (human)
# Sequence (Q12809 whole entry, looked up): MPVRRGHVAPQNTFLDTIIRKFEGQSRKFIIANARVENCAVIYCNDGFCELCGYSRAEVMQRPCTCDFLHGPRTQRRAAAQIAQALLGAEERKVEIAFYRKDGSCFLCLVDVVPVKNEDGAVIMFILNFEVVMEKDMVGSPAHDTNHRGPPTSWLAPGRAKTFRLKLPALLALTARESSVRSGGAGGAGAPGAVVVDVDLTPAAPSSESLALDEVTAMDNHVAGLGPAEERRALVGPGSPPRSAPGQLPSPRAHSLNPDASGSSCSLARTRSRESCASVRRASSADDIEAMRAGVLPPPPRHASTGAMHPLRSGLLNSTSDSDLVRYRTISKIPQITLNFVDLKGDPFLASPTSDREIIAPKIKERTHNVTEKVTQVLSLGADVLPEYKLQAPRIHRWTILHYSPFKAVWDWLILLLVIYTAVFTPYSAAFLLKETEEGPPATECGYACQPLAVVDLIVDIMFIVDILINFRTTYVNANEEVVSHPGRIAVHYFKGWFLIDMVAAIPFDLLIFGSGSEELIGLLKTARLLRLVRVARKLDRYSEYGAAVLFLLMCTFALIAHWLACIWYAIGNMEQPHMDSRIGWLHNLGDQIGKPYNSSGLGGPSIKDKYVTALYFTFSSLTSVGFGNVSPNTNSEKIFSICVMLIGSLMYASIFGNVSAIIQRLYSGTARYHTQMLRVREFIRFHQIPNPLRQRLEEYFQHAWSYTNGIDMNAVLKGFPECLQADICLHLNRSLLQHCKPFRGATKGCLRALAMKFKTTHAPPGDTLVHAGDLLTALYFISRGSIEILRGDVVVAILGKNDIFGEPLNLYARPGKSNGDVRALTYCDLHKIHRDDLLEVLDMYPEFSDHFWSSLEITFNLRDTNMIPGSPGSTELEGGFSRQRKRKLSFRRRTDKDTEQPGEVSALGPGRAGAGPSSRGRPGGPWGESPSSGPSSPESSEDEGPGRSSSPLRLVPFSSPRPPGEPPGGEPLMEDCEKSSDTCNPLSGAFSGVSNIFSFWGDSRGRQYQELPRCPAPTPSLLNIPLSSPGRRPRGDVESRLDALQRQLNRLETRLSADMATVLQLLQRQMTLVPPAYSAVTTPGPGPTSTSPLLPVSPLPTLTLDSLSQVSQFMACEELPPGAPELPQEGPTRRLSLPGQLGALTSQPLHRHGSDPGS
# test: primary screen, population patch clamp on CHO cells stably expressing hERG; higher = less effect of the substance
Out of some 310,000 compounds screened, about 14,000 (4.5%) showed an effect of 50% or more. The effect is printed as a negative number. Only a selection was taken, and strong results are over-represented in it overall.
Reported hERG current change (%, negative = inhibition) at 10uM values are given for each entry in this list.
// note: answer is a bare numeric in %

molecule: COC(=O)c1[nH]c2ccccc2c1NC(=O)C(C)N1CCOCC1 (stereo not shown)
displayUnit: %
numericReadout: 9.7
//
molecule: COC(=O)c1[nH]c2ccc(Br)cc2c1NC(=O)CN1CCCc2ccccc21
displayUnit: %
numericReadout: -4.4
//
molecule: COC(=O)c1[nH]c2ccc(Cl)cc2c1NC(=O)CCN1CCN(C2CCCCC2)CC1
displayUnit: %
numericReadout: -80
//
molecule: O=C(CSc1nnc(-c2ccccc2)o1)NC1CCCCC1
displayUnit: %
numericReadout: -16.6
//
molecule: COC(=O)c1[nH]c2ccc(Br)cc2c1NC(=O)CN1CCN(C2CCCCC2)CC1
displayUnit: %
numericReadout: -78.7
//
molecule: COCc1cc(C)nc2sc(C(=O)Nc3ccc(OC)cc3)c(N)c12
displayUnit: %
numericReadout: 12.5
//
molecule: COc1ccccc1/C=C/C1=NC(=C\C=C/c2ccccc2)/C(=O)O1
displayUnit: %
numericReadout: 3.98
//
molecule: COC(=O)c1[nH]c2ccc(Cl)cc2c1NC(=O)CN1CCC(C(N)=O)CC1
displayUnit: %
numericReadout: -2.26

### Prompt State, in one line, measured hERG current change (%, negative = inhibition) at 10uM of `COc1ccc(C(=O)NCc2nnc(SCC(=O)N3CCOCC3)o2)cc1OC`
### Response 13.7

### Prompt State, in one line, measured hERG current change (%, negative = inhibition) at 10uM of `CCn1c(NN=O)nc2ccccc21`
### Response 15.6

====

# assaySystem: human ether-à-go-go-related gene (hERG) potassium channel (human)
# test: primary screen, population patch clamp on CHO cells stably expressing hERG; higher = less effect of the substance
Out of some 310,000 compounds screened, about 14,000 (4.5%) showed an effect of 50% or more. The effect is printed as a negative number. The list comes from a sample in which strong results are over-represented; it also holds close analogues and randomly drawn compounds.
quantity: hERG current change (%, negative = inhibition) at 10uM (%)
// note: answer is a bare numeric in %

Solved entries:
compound: CCCCNC(=O)/C(C#N)=c1\s/c(=C\c2ccccc2OC(F)F)c(=O)n1CCCOC
assaySystem: human ether-à-go-go-related gene (hERG) potassium channel (human)
displayUnit: %
numericReadout: 22.6

compound: O=C(O)c1ccc2c(c1)CCC2
assaySystem: human ether-à-go-go-related gene (hERG) potassium channel (human)
displayUnit: %
numericReadout: 9.54

compound: Cc1cc(C)cc(N2CCCn3c2nc2c3c(=O)[nH]c(=O)n2C)c1
assaySystem: human ether-à-go-go-related gene (hERG) potassium channel (human);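 further: peak tail current of the secondary pulse compared with the same well before compound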
displayUnit: %
numericReadout: 13.6

compound: Cc1ccc(NC(=O)CSc2ccc(-c3ccco3)nn2)cc1
assaySystem: human ether-à-go-go-related gene (hERG) potassium channel (human);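 further: peak tail current of the secondary pulse compared with the same well before compound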
displayUnit: %
numericReadout: -7.67

compound: CCOc1cc(C(=O)N(C)CC(=O)Nc2cccc(F)c2)ccc1OCC(=O)N1CCCCC1
assaySystem: human ether-à-go-go-related gene (hERG) potassium channel (human);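 further: peak tail current of the secondary pulse compared with the same well before compound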
displayUnit: %
numericReadout: -14.1

compound: Cc1ccc(C2N(c3ccc(Cl)cc3)C(=O)N3CCCN23)cc1 (stereo not shown)
assaySystem: human ether-à-go-go-related gene (hERG) potassium channel (human);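 further: peak tail current of the secondary pulse compared with the same well before compound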
displayUnit: %
numericReadout: -1.05

### Prompt State, in one line, measured hERG current change (%, negative = inhibition) at 10uM of `COc1ccc(S(=O)(=O)CCC(=O)Nc2c(C)cccc2C)cc1`
### Response 23

### Prompt State, in one line, measured hERG current change (%, negative = inhibition) at 10uM of `O=C(c1cc(S(=O)(=O)N2CCOCC2)ccc1Cl)N1CCC(Cc2ccccc2)CC1`
### Response -15.9

### Prompt State, in one line, measured hERG current change (%, negative = inhibition) at 10uM of `O=C(c1cc2ncc(CCCl)cn2n1)N1CCCCCC1`
### Response 8.53

### Prompt State, in one line, measured hERG current change (%, negative = inhibition) at 10uM of `C/C(=N\OCC(=O)Nc1cc(C)cc(C)c1)c1ccc2c(c1)OCCO2`
### Response -13
